binders and their reported cGMP Assay (EC50, pM) w/Casein
Target: T1, human NPRA (human, UniProt P16066 33-1061)
T1 sequence (looked up): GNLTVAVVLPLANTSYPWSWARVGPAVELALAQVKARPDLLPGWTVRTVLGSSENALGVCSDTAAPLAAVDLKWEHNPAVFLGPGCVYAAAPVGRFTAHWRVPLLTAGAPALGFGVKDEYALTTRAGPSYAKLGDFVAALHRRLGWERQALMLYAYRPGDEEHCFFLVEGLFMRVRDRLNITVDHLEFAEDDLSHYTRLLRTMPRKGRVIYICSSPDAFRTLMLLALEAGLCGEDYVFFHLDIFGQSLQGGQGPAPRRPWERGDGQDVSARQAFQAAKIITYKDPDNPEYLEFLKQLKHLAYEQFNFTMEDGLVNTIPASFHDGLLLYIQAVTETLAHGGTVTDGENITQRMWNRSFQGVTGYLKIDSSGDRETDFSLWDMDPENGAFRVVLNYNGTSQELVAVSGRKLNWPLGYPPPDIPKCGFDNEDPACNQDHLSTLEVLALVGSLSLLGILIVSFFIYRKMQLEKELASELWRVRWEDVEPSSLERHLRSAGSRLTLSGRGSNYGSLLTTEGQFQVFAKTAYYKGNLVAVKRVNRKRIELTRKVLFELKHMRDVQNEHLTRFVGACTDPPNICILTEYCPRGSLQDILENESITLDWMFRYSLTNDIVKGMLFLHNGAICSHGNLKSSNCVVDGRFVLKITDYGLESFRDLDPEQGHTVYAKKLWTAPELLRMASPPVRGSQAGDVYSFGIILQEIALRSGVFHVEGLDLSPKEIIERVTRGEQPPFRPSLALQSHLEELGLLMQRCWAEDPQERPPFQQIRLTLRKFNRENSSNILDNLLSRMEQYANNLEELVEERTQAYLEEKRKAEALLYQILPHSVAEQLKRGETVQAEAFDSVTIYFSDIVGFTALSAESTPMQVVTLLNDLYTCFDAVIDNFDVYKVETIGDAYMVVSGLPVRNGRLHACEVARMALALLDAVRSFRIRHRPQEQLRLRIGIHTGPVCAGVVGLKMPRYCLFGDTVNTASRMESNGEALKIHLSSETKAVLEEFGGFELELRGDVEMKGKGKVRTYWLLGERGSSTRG
Assay: cell-based or functional assay
Numbered stars: 1 amine (or outer) side, 2 acyl side, 3 side chain; on linkers, the order of the positions; unused ones are H or OH. Bridge positions count the residues as written; N and C are the ends. Square brackets hold non-standard residues; d marks the D form. * marks the point of attachment. thioacetal = thioacetal linkage between two cysteines (intrachain bond at the bracketed Cys); C20 diacid = O=C(O)CCCCCCCCCCCCCCCCCCC(=O)*; γGlu = O=C(O)[C@H](CCC(=O)[*:2])N[*:1]; 4Pal = N[C@@H](Cc1ccncc1)C(=O)O; Aib = CC(C)(N)C(=O)O; βAla = NCCC(=O)O

Examples from the recorded data:
{C20 diacid}-[γGlu]EKEKEKGS[4Pal]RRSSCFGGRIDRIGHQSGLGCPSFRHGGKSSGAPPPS-NH2 (bridge 15-31 via thioacetal) [Example 67]
1220 pM
{C20 diacid}-[γGlu]EKEKEKGEK[βAla]RSSCFGGRIDRIGHYSGLGCPSFRHGPSSGAPPPS-NH2 (bridge 15-31 via thioacetal) [Example 60]
453 pM
XEKEKEKGEKXRSSCFGKRIDRIGHQSGLGCPSFRHGGKSSGAPPPS (HOOC-(CH2)18-CO-(γGlu)-EKEKEKGEK-βAla-RSS[CFGKRIDRIGHQSGLGC]PSFRHGGKSSGAPPPS-NH2; thioacetal linkage between the bracketed Cys) [Example 85]
361 pM

Per the records, this binder ( {C20 diacid}-[γGlu]EKEKEKGS[4Pal]RRSSCFGGRIDRIGHQSGLGCPSFRHGGPPS[Aib]KPPPK-NH2 (bridge 15-31 via thioacetal) [Example 71] ) has cGMP Assay (EC50, pM) w/Casein equal to 594 pM

Per the records, this binder ( EKXRSSCFGGRIDRIGHYSGLGCPSFRHGSPSSGAPPPS (HOOC-(CH2)18-CO-(γGlu)-EKEKEKG-(AEEA)6-EK-βAla-RSS[CFGGRIDRIGHYSGLGC]PSFRHGSPSSGAPPPS-NH2; thioacetal linkage between the bracketed Cys) [Example 98] ) has cGMP Assay (EC50, pM) w/Casein equal to 1840 pM
